Origin of measurements: the supplement of paper PMC11061612

Examples of compounds with documented combination Emax follow.
System: 639-V (Bladder Carcinoma)
EXPERIMENT: combination Emax (second highest fraction inhibited in the dose matrix, 72 h); higher = more inhibition; extreme values may be limits of the assay

[
  {
    "COMPOUND": "CN(CCO)CC[C@H](CSc1ccccc1)Nc1ccc(S(=O)(=O)NC(=O)c2ccc(N3CCC([C@@H](O)c4ccccc4-c4ccc(Cl)cc4)CC3)cc2)cc1S(=O)(=O)C(F)(F)F [AZD4320] + Cc1cc2ncnn2cc1Nc1ncc2c(n1)n(C1CCOCC1)c(=O)n2C [AZD7648] (first compound max 1 µM, 7x7, partner max 10 µM)",
    "combination Emax": 0.208
  },
  {
    "COMPOUND": "Cn1cnc2c(F)c(Nc3ccc(Br)cc3Cl)c(C(=O)NOCCO)cc21 [Selumetinib] + C=CCn1c(=O)c2cnc(Nc3ccc(N4CCN(C)CC4)cc3)nc2n1-c1cccc(C(C)(C)O)n1 [AZD1775] (first compound max 10 µM, partner max 1 µM)",
    "combination Emax": 0.455
  },
  {
    "COMPOUND": "NC1(C(=O)N[C@@H](CCO)c2ccc(Cl)cc2)CCN(c2ncnc3[nH]ccc23)CC1 [Capivasertib] + COc1nnc2ccc(N3CCC(c4ccc(OCCN5CCN(C)C(=O)[C@H]5C)cc4)CC3)nn12 [AZD5153] (first compound max 10 µM, 7x7, partner max 1 µM)",
    "combination Emax": 0.622
  }
]

###

System: NCI-H2795 (Mesothelioma)
EXPERIMENT: combination Emax (second highest fraction inhibited in the dose matrix, 72 h); higher = more inhibition; extreme values may be limits of the assay
Please note: fulfilled applies when combination Emax is 0.4 or greater, and not fulfilled applies otherwise.

[
  {
    "MOLECULE": "COc1cccc2c1C(=O)c1c(O)c3c(c(O)c1C2=O)C[C@@](O)(C(=O)CO)C[C@@H]3O[C@H]1C[C@H](N)[C@H](O)[C@H](C)O1 [Doxorubicin] + Cc1cc2ncnn2cc1Nc1ncc2c(n1)n(C1CCOCC1)c(=O)n2C [AZD7648] (first compound max 1 µM, 7x7, partner max 10 µM)",
    "TARGET OF ASSAY": "NCI-H2795 (Mesothelioma)",
    "CLASS ASSIGNMENT": "fulfilled"
  },
  {
    "MOLECULE": "COc1cccc(OCCCN)c1-c1cc(Nc2cnc(C#N)cn2)n[nH]1 [Prexasertib] + Cc1cc2ncnn2cc1Nc1ncc2c(n1)n(C1CCOCC1)c(=O)n2C [AZD7648] (first compound max 1 µM, 7x7, partner max 10 µM)",
    "TARGET OF ASSAY": "NCI-H2795 (Mesothelioma)",
    "CLASS ASSIGNMENT": "fulfilled"
  },
  {
    "MOLECULE": "CC(=O)c1c(C)c2cnc(Nc3ccc(N4CCNCC4)cn3)nc2n(C2CCCC2)c1=O [Palbociclib] + Cn1cnc2c(F)c(Nc3ccc(Br)cc3Cl)c(C(=O)NOCCO)cc21 [Selumetinib] (first compound max 10 µM, 7x7, partner max 10 µM)",
    "TARGET OF ASSAY": "NCI-H2795 (Mesothelioma)",
    "CLASS ASSIGNMENT": "fulfilled"
  },
  {
    "MOLECULE": "CC1(C)CCC(CN2CCN(c3ccc(C(=O)NS(=O)(=O)c4ccc(NCC5CCOCC5)c([N+](=O)[O-])c4)c(Oc4cnc5[nH]ccc5c4)c3)CC2)=C(c2ccc(Cl)cc2)C1 [Venetoclax] + CCN(CCO)CCCOc1ccc2c(Nc3cc(CC(=O)Nc4cccc(F)c4)[nH]n3)ncnc2c1 [AZD2811] (first compound max 1 µM, 7x7, partner max 1 µM)",
    "TARGET OF ASSAY": "NCI-H2795 (Mesothelioma)",
    "CLASS ASSIGNMENT": "fulfilled"
  },
  {
    "MOLECULE": "CN(C)CCCOc1ccc(-c2ccc3ncc4c(c3c2)n(C2CCOCC2)c(=O)n4C)cn1 [AZD0156] + O=C(c1cc(Cc2n[nH]c(=O)c3ccccc23)ccc1F)N1CCN(C(=O)C2CC2)CC1 [Olaparib] (first compound max 3 µM, partner max 3 µM)",
    "TARGET OF ASSAY": "NCI-H2795 (Mesothelioma)",
    "CLASS ASSIGNMENT": "not fulfilled"
  },
  {
    "MOLECULE": "COc1nnc2ccc(N3CCC(c4ccc(OCCN5CCN(C)C(=O)[C@H]5C)cc4)CC3)nn12 [AZD5153] + Cc1c2c(nn1C)CSCc1cc(n(C)n1)CSc1cc(c3ccccc3c1)OCCCc1c(C(=O)O)n(C)c3c-2c(Cl)ccc13 [AZD5991] (first compound max 1 µM, 7x7, partner max 1 µM)",
    "TARGET OF ASSAY": "NCI-H2795 (Mesothelioma)",
    "CLASS ASSIGNMENT": "fulfilled"
  }
]

###

Test system: HDLM-2 (Hodgkin's Lymphoma)
EXPERIMENT: Bliss excess, mean over the matrix (fraction); higher = more synergy
Bliss excess: recorded values

[
  {
    "MOLECULE": "CN(CCO)CC[C@H](CSc1ccccc1)Nc1ccc(S(=O)(=O)NC(=O)c2ccc(N3CCC([C@@H](O)c4ccccc4-c4ccc(Cl)cc4)CC3)cc2)cc1S(=O)(=O)C(F)(F)F [AZD4320] + CCN(CCO)CCCOc1ccc2c(Nc3cc(CC(=O)Nc4cccc(F)c4)[nH]n3)ncnc2c1 [AZD2811] (first compound max 1 µM, 7x7, partner max 1 µM)",
    "Bliss excess": 0.0781
  },
  {
    "MOLECULE": "CC1(C)CCC(CN2CCN(c3ccc(C(=O)NS(=O)(=O)c4ccc(NCC5CCOCC5)c([N+](=O)[O-])c4)c(Oc4cnc5[nH]ccc5c4)c3)CC2)=C(c2ccc(Cl)cc2)C1 [Venetoclax] + C=CCn1c(=O)c2cnc(Nc3ccc(N4CCN(C)CC4)cc3)nc2n1-c1cccc(C(C)(C)O)n1 [AZD1775] (first compound max 1 µM, partner max 1 µM)",
    "Bliss excess": 0.0749
  }
]

###

Tested on: HARA (Squamous Cell Lung Carcinoma)
EXPERIMENT: combination Emax (second highest fraction inhibited in the dose matrix, 72 h); higher = more inhibition; extreme values may be limits of the assay
The following molecules are listed with their measured combination Emax values.

[
  {
    "MOLECULE": "COc1cccc(OCCCN)c1-c1cc(Nc2cnc(C#N)cn2)n[nH]1 [Prexasertib] + C[C@@H]1COCCN1C2=NC(=NC(=C2)C3(CC3)[S@](=N)(=O)C)C4=C5C=CNC5=NC=C4 [AZD6738] (first compound max 1 µM, 7x7, partner max 10 µM)",
    "combination Emax": 0.943
  },
  {
    "MOLECULE": "CN(CCO)CC[C@H](CSc1ccccc1)Nc1ccc(S(=O)(=O)NC(=O)c2ccc(N3CCC([C@@H](O)c4ccccc4-c4ccc(Cl)cc4)CC3)cc2)cc1S(=O)(=O)C(F)(F)F [AZD4320] + C[C@@H]1COCCN1C2=NC(=NC(=C2)C3(CC3)[S@](=N)(=O)C)C4=C5C=CNC5=NC=C4 [AZD6738] (first compound max 1 µM, 7x7, partner max 10 µM)",
    "combination Emax": 0.884
  },
  {
    "MOLECULE": "COc1nnc2ccc(N3CCC(c4ccc(OCCN5CCN(C)C(=O)[C@H]5C)cc4)CC3)nn12 [AZD5153] + Cn1cnc2c(F)c(Nc3ccc(Br)cc3Cl)c(C(=O)NOCCO)cc21 [Selumetinib] (first compound max 1 µM, 7x7, partner max 10 µM)",
    "combination Emax": 0.708
  }
]

###

This section presents molecules with their documented Bliss excess values.
System: SUP-T1 (T-Lymphoblastic Leukemia)
EXPERIMENT: Bliss excess, mean over the matrix (fraction); higher = more synergy

[
  {
    "MOLECULE": "CC1(C)CCC(CN2CCN(c3ccc(C(=O)NS(=O)(=O)c4ccc(NCC5CCOCC5)c([N+](=O)[O-])c4)c(Oc4cnc5[nH]ccc5c4)c3)CC2)=C(c2ccc(Cl)cc2)C1 [Venetoclax] + C[C@@H]1COCCN1C2=NC(=NC(=C2)C3(CC3)[S@](=N)(=O)C)C4=C5C=CNC5=NC=C4 [AZD6738] (first compound max 1 µM, 7x7, partner max 10 µM)",
    "Bliss excess": -0.0098
  },
  {
    "MOLECULE": "COc1cccc(OCCCN)c1-c1cc(Nc2cnc(C#N)cn2)n[nH]1 [Prexasertib] + C=CCn1c(=O)c2cnc(Nc3ccc(N4CCN(C)CC4)cc3)nc2n1-c1cccc(C(C)(C)O)n1 [AZD1775] (first compound max 1 µM, partner max 1 µM)",
    "Bliss excess": -0.0504
  },
  {
    "MOLECULE": "Cc1cc2ncnn2cc1Nc1ncc2c(n1)n(C1CCOCC1)c(=O)n2C [AZD7648] + C[C@@H]1COCCN1C2=NC(=NC(=C2)C3(CC3)[S@](=N)(=O)C)C4=C5C=CNC5=NC=C4 [AZD6738] (first compound max 10 µM, 7x7, partner max 10 µM)",
    "Bliss excess": 0.0052
  }
]
